Origin of the recorded values: PubChem BioAssay AID1508601

- Method description: nuclear p53 accumulation, HPV+ cells – imaging, p53-positive nuclei imaging, 24 h, 48 h (AID 1508601)
- Condition label: 24/48 h, measured here: cell number at 24 h, Library stock concentration: 10 mM
About 85 (1%) of roughly 5,700 compounds were called active. This is one part of a sample in which actives are shown more often than they occur. Peptide text beside a SMILES is read from it. * marks the point of attachment. Cbz = O=C(OCc1ccccc1)*
nuclei count, normalised: recorded values
Respond with the bare value in %.

>>> value("C#C[C@]1(O)CC[C@@H]2[C@@H]3CCc4cc(O)ccc4[C@@H]3CC[C@@]21C")
72.9
>>> value("OCC1OC(n2cnc3c2NC=NCC3O)CC1O (centres undefined)")
117
>>> value("CC1CCNC(=O)c2cc3ccc(C(=O)Nc4nc5ccccc5n4CCCN(C)C)cc3n21 (centres undefined)")
106
>>> value("C#CCOc1ccc2c(c1)c(-c1ccc(C(C)C)cc1)nc(=O)n2C(C)C")
112
>>> value("CC(C)CC(C=O)NC(=O)C(CC(C)C)NC(=O)C(CC(C)C)NC(=O)OCc1ccccc1 (stereo not drawn) (Cbz-Leu-Leu-Leu-aldehyde; configuration not given here)")
59.9
>>> value("CC(=O)NC(CC(C)C)C(=O)NC(CC(C)C)C(=O)NC(C=O)CCCN=C(N)N (centres undefined)")
67.4
>>> value("Cc1ccc(NC(=O)c2ccc(CN3CCN(C)CC3)cc2)cc1Nc1nccc(-c2cccnc2)n1")
87.2
>>> value("CCN1CCN(Cc2ccc(Nc3ncc4c(n3)N(C)c3ccccc3C(=O)N4C)cc2C(F)(F)F)CC1")
35.9

// moving on: another record for nuclei count, normalised
Data point: CC(C)(C)Nc1nc2cc(Cl)c(Cl)cc2nc1S(C)(=O)=O ; nuclei count, normalised = 44.4
